# Test system: MALME-3M melanoma
# test: NCI tumour cell line growth inhibition, 48 h; in the data active means GI50 below about 0.43 µM; inactive means the rest
Outcome codes: class 1 (active), class 0 (inactive)

compound="COc1ccc(/C=C2\\CCCC3=C2N=C2SC=NN2C3c2ccc(OC)c(OC)c2)cc1OC (stereo unspecified)" label_class="class 0"
compound=Cc1ccc(S(=O)(=O)N2C/C(=C\c3cc(F)cc(F)c3)C(=O)/C(=C/c3cc(F)cc(F)c3)C2)cc1 label_class="class 1"
compound="COC(C(=O)[C@@H](O)[C@@H](C)O)[C@@H]1Cc2cc3cc(O[C@H]4C[C@@H](O[C@H]5C[C@@H](O)[C@H](O)C(C)O5)[C@H](O)C(C)O4)c(C)c(O)c3c(O)c2C(=O)[C@H]1O[C@H]1C[C@@H](O[C@H]2C[C@@H](O[C@H]3C[C@@H](O)[C@@H](O)C(C)O3)[C@@H](O)C(C)O2)[C@H](O)C(C)O1 (stereo partly specified)" label_class="class 1"
compound=Nc1nn(C(=O)Nc2ccc(Cc3ccccc3)cc2)c2ccccc12 label_class="class 0"
compound=C[C@H]1[C@H](C)CC[C@]2(C(=O)O)CC[C@]3(C)C(=CC[C@@H]4[C@@]5(C)CC[C@H](OC(=O)/C=C\c6ccc(O)cc6)C(C)(C)[C@@H]5CC[C@]43C)[C@H]12 label_class="class 0"
compound="COc1ccc2c(c1)N(CCO)C1=C(C(=O)OC1)C2c1cccc(Br)c1 (stereo unspecified)" label_class="class 1"

====

# Test system: T-47D breast
# test: NCI tumour cell line growth inhibition, 48 h
GI50 values for the compounds below.
assay.readout: GI50

compound_structure=OCCCNC(=S)Nc1ccc(-c2nc3ccccc3s2)cc1 target_entity="T-47D breast" assay_readout=GI50 result="16900 nM"
compound_structure=N=C(N)c1ccc(-c2ccc(-c3cc(Cl)cc(Cl)c3)s2)nc1 target_entity="T-47D breast" assay_readout=GI50 result="2120 nM"
compound_structure=Cc1ccc(S(=O)(=O)C2=C3C(=C(c4ccccc4)c4ccccc43)CN(S(=O)(=O)c3ccc(C)cc3)C2)cc1 target_entity="T-47D breast" assay_readout=GI50 result="2910 nM"
compound_structure=CSc1ccc2c(c1)C(=O)c1c-2n(CCCN=[N+]=[N-])c(=O)c2cc([N+](=O)[O-])ccc12 target_entity="T-47D breast" assay_readout=GI50 result="4580 nM"
compound_structure=O=C(O)c1cn(C2CC2)c2cc(N3CCN(C(=O)Nc4nc(-c5ccc(Cl)cc5)cs4)CC3)c(F)cc2c1=O target_entity="T-47D breast" assay_readout=GI50 result="1650 nM"

====

# System: SW-620 colon
# test: NCI tumour cell line growth inhibition, 48 h
Where a SMILES comes first, the peptide text is derived from it. Bridges are numbered along the chain shown (N, C = ends). Roman numbers before positions name the chains, in order. [ ]: non-standard residue; d: D form. The star is where a group is joined. Heptadecanoyl = CCCCCCCCCCCCCCCCC(=O)*; Phg = N[CH](C(=O)O)c1ccccc1
assay.readout: GI50

compound=O=CNc1ccc2c(c1)Cc1cc([N+](=O)[O-])ccc1-2 assay_readout=GI50 result="2050 nM"
compound=Cc1cc(Cl)ccc1Nc1nc(C(F)(F)F)ccc1C(=O)N/N=C/c1ccc(F)cc1 assay_readout=GI50 result="2060 nM"
compound="CCCCCCCCCCCCCCCCC(=O)N1CCCC1C(=O)NCC(=O)NC(C(=O)N1CCCC1C(=O)NC(CO)C(=O)NC(Cc1ccc(O)cc1)C(=O)NC(CCCCNC(=O)C1CCCN1C(=O)C(CCCCN)NC(=O)C(CCCCN)NC(=O)C(CCCCN)NC(=O)C(CCCNC(=N)N)NC(=O)C(CCCCN)NC(=O)C(N)C(C)C)C(=O)NC(CC(C)C)C(=O)NC(CCCNC(=N)N)C(=O)N1CCCC1C(=O)NCC(N)=O)c1ccccc1 (centres undefined) (I: Heptadecanoyl-PG[Phg]PSYKLRPG-NH2 / II: H-VKRKKKP; amide I:7-II:C; configuration not given here)" assay_readout=GI50 result="40500 nM"
compound=N=C(N)c1ccc(-c2ccc(-c3ccco3)o2)cc1F assay_readout=GI50 result="1720 nM"
